Numbers sourced from patent US20200317779A1.

Target: recombinant human CD3ε/δ heterodimer (human) (UniProt P07766)
Sequence (P07766 23-126, stated change not applied, chain 1 of 2): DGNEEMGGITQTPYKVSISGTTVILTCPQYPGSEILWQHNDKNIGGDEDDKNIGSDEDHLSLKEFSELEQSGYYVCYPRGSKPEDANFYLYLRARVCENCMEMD
Sequence (P04234 22-105, stated change not applied, chain 2 of 2, further chain): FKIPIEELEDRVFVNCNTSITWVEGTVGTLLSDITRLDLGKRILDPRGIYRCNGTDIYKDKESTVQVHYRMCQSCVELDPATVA
Test: ELISA, coated CD3ε/δ
PROPERTY_LABEL: Absorbance (450 nm)
Form field (numeric): enter value without unit.

BINDER	Absorbance (450 nm)
F15 (antibody, human IgG1, lambda, L234A L235A, V domains shown) VH: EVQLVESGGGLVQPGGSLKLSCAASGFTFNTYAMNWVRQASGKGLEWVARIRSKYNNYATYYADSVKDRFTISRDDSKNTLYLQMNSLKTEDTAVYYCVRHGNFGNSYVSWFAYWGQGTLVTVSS VL: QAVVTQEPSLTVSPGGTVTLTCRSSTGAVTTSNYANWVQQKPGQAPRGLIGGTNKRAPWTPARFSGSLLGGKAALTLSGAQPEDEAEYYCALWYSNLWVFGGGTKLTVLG	2.49

Turning to the following binder.
# input binder: F05 (antibody, human IgG1, lambda, L234A L235A, V domains shown) VH: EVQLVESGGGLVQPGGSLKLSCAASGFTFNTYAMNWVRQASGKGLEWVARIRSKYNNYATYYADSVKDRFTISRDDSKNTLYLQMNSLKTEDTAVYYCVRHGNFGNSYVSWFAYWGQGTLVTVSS VL: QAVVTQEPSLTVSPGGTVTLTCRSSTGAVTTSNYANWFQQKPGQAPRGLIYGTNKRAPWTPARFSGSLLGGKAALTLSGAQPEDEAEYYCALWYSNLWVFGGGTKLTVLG ; wanted: its Absorbance (450 nm)
0.105
